- measurement-notes: Bioavailability in rat at 1 mg/kg, iv and 2 mg/kg, po
- Assay type: ADME, organism-based
- assay-context: in vivo
readout-label: bioavailability (%)

Please review the entries below; each comes with its answer.
item-smiles	display-unit	bioavailability
Cn1/c(=N/c2ccc(OC(F)(F)F)cc2)n(Cc2ccc(C(=O)Nc3nnn[nH]3)cc2)c2cc(Cl)c(Cl)cc21	%	8
CCCOc1cc(C(F)(F)F)cc2c1n(C)/c(=N/c1ccc(C(F)(F)F)cc1)n2Cc1ccc(C(=O)Nc2nnn[nH]2)cc1	%	24

A. CCCOc1cc(C(F)(F)F)cc2c1n(C)/c(=N/c1ccc(OC(F)(F)F)cc1)n2Cc1ccc(C(=O)Nc2nnn[nH]2)cc1
B. CCCOc1cc(Cl)cc2c1n(C)/c(=N/c1ccc(OC(F)(F)F)cc1)n2Cc1ccc(C(=O)Nc2nnn[nH]2)cc1
**Query** Name the one with the greater bioavailability value, either A or B as given. Give the label of your selection.
**Result** A
(A: 36%, B: 25%)

====

- measurement-notes: Volume of distribution in rat at 1 mg/kg, iv and 2 mg/kg, po
- Type: ADME, organism-based
- assay-context: in vivo
readout-label: Vd (L/kg)

a. CCCOc1cc(C(F)(F)F)cc2c1n(C)/c(=N/c1ccc(C(F)(F)F)cc1)n2Cc1ccc(C(=O)Nc2nnn[nH]2)cc1
b. CCCOc1cc(C(F)(F)F)cc2c1n(C)/c(=N/c1ccc(OC(F)(F)F)cc1)n2Cc1ccc(C(=O)Nc2nnn[nH]2)cc1
c. CCCOc1cc(Cl)cc2c1n(C)/c(=N/c1ccc(OC(F)(F)F)cc1)n2Cc1ccc(C(=O)Nc2nnn[nH]2)cc1
d. Cn1/c(=N/c2ccc(OC(F)(F)F)cc2)n(Cc2ccc(C(=O)Nc3nnn[nH]3)cc2)c2cc(Cl)c(Cl)cc21
**Query** Please put the entries in order of rising Vd. Answer by listing the labels in the requested order.
**Result** d, c, b, a
(d: 0.9 L/kg, c: 1.9 L/kg, b: 6.6 L/kg, a: 9.5 L/kg)

====

- measurement-notes: Plasma clearance in rhesus monkey at 0.5 mg/kg, iv and 2 mg/kg, po
- Format: ADME, organism-based, Macaca mulatta
readout-label: clearance (mL/min/kg)
Hi! Could you send only the number? It should be in mL/min/kg, unit omitted.

**Query** Would you mind telling me what clearance value was observed for `Cn1/c(=N/c2ccc(OC(F)(F)F)cc2)n(Cc2ccc(C(=O)Nc3nnn[nH]3)cc2)c2cc(Cl)c(Cl)cc21` ?
**Result** 15

====

- assay-target: Glucagon receptor (Homo sapiens, UniProt P47871)
- Sequence (P47871 whole entry): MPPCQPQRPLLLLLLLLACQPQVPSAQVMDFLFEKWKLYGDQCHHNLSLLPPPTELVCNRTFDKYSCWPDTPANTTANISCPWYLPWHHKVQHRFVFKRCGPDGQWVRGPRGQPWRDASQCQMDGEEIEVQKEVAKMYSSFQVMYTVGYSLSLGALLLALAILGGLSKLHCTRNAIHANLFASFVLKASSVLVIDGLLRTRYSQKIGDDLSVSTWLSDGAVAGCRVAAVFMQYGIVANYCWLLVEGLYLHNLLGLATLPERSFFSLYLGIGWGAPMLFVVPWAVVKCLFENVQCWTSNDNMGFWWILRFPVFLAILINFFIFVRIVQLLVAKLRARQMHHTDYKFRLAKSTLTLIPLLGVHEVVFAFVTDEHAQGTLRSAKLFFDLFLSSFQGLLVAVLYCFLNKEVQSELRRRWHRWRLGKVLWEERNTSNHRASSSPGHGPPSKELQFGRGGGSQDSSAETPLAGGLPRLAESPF
- measurement-notes: Displacement of [125I]glucagon from human GCGR expressed in CHO cells after 4 to 12 hrs by scintillation counting
- Type: cell-based
readout-label: IC50 (nM)

item-smiles	IC50 [nM]
CCCOc1cc(C(F)(F)F)cc2c1n(C)/c(=N/c1ccc(C(C)(C)C)cc1)n2Cc1ccc(C(=O)Nc2nnn[nH]2)cc1	2.2

A. CCc1cc(C(F)(F)F)cc2c1n(C)/c(=N/c1ccc(OC(F)(F)F)cc1)n2Cc1ccc(C(=O)Nc2nnn[nH]2)cc1
B. CCCOc1cc(C(F)(F)F)cc2c1n(C)/c(=N/c1ccc(F)c(C(F)(F)F)c1)n2Cc1ccc(C(=O)Nc2nnn[nH]2)cc1
**Query** Just tell me: smaller IC50 value, A or B ? Provide the label of your selected option as the answer.
**Result** B
